APPLIED_CONDITIONS: RP-HPLC, 72:28 MeOH:H2O
REPORTED_ENDPOINT: Logk
Enter the number alone.

Guide cases for Logk, answers given:
O=C(/C=C/c1ccccc1)Nc1ccc(Br)cc1C(F)(F)F [Compound 16] | 0.4683
O=C(/C=C/c1ccccc1)Nc1ccc(Cl)cc1Cl [Compound 4] | 0.5278
O=C(/C=C/c1ccccc1)Nc1c(Br)cc(C(F)(F)F)cc1Br [Compound 19] | 0.4321
O=C(/C=C/c1ccccc1)Nc1ccc(Cl)cc1C(F)(F)F [Compound 15] | 0.4113

Then there is this molecule:
## Task Endpoint output: Logk of O=C(/C=C/c1ccccc1)Nc1cc(C(F)(F)F)ccc1Br [Compound 13] . Value?
## Result 0.5561
